test system: NCI-H522; test: NCI tumour cell line growth inhibition, 48 h
Calls of active or inactive are those of the source. Cut-off read from the data, not from the text of the source: active = GI50 up to about 1.1 µM and inactive = higher.
endpoint_name: GI50

What value of GI50 on NCI-H522 does C=CC(=C)CCC(Br)C(C)(C)Br (stereo not given) have?
15.7 µM (inactive)

# get_value(readout= GI50, system= NCI-H522) for CCOC(=O)C1(C(=O)OCC)OC(=O)NC2=C1CCCC2
> 100 µM (inactive)

Notebook entry, NCI-H522 assay: GI50 of C=C1C(=O)OC2CC3(CO3)C3C(O)C(O)CC3(C)CC12 (stereo not given) = ?
12.3 µM (inactive)

Request - read-out GI50 | tested on NCI-H522 | compound CCN(CC)c1ccc(/N=N/c2ccc(-c3nc4cccnc4s3)cc2)cc1
> 100 µM (inactive)

Form field: GI50 recorded for CC1(C)C2CCC1(C)C(NC(=O)COCCOCC(N)=O)C2 (stereo not given) with NCI-H522 (enter value)
> 100 µM (inactive)

Lab note: need GI50 with NCI-H522 for entry c1ccc2c(c1)nnn2C1CCCCO1 (stereo not given) , please look it up.
> 100 µM (inactive)

Form field: GI50 recorded for COc1cc(/C=C/C(=O)OC2C(O)C3CC(OC(=O)c4cc(OC)c(OC)c(OC)c4)CC2N3C)cc(OC)c1OC (stereo not given) with NCI-H522 (enter value)
19.5 µM (inactive)

* * *

tested on: SK-MEL-5; assay: NCI tumour cell line growth inhibition, 48 h
The source made the active and inactive calls. No stated cut-off is given here; in the data, active = GI50 up to about 1.1 µM and inactive = higher.
Use one of these outcomes when replying: active, inactive

COc1ccc(C[C@@H](CO)NC2=C(C#N)CCC2)cc1
inactive
CCN(CC)CCCNc1nc(=O)[nH]c(C)c1C(=O)Nc1c2ccccc2nc2ccccc12
inactive
CCCCCCCCCCCC(=O)OC[C@@H](C[As](=O)(O)O)OC(=O)CCCCCCCCCCC
inactive
C#CN1C(=O)c2c(c(-c3ccccc3)c(-c3ccc(Oc4ccc(-c5c(-c6ccccc6)c6c(c(-c7ccccc7)c5-c5ccccc5)C(=O)N(C#C)C6=O)cc4)cc3)c(-c3ccccc3)c2-c2ccccc2)C1=O
inactive
OC1/C(=C/c2ccccc2)CNC/C1=C\c1ccccc1 (centres undefined)
inactive

Call for entry COC(=O)/C=C1/OC(c2ccc(C)cc2)=C(Cl)C1=O :
inactive

How did this test come out for COc1ccc(C2=C(Cl)C(=O)N(c3ccc(OC)cc3OC)C(=O)C2(Cl)Cl)cc1 ?
inactive

Dear colleague, could you share the recorded outcome for COc1cc(/C=c2/c3ccccc3n3c2cc(-c2ccccc2)[n+]3C)cc(OC)c1OC when you have a moment?
inactive

Assay outcome for CCC(=O)c1c(NOC2OC(COC(C)=O)C(OC(C)=O)C(OC(C)=O)C2OC(C)=O)nc(OC)n(C)c1=O (centres undefined) : what was it?
inactive

What did this assay record as the result for Cc1nc2ccccc2c(=O)n1/N=C(\N=N\c1cc(Cl)ccc1Cl)c1ccccc1 ?
inactive

* * *

test system: PC-3; test: NCI tumour cell line growth inhibition, 48 h
Active and inactive are the calls of the source. Rule as the data show it: active = GI50 up to about 1.1 µM and inactive = higher.
A correct response names exactly one class from true = active, false = inactive

CC(=O)N(CCc1ccccc1)C(C#N)c1ccc(OCCCCCCCCCCOc2ccc(C(C#N)N(CCc3ccccc3)C(C)=O)cc2)cc1 (stereo not given)
false
CNc1nc(=O)c(C#N)c(-c2ccc(C)cc2)s1
false
C[N+](C)([O-])CCCNc1c2ccccc2nc2cccc([N+](=O)[O-])c12
true
CS(=N)(=O)CCC(N)P(=O)(O)O (stereo not given)
false
CC(/C=C/C(O)=C1/C(=O)CNC1=O)=C\[C@@H](C)[C@H]1O[C@@]2(C)O[C@H](C(=O)[C@@H]3O[C@@]32C)[C@@H]1C
false

Recorded call for CC1(C)Oc2ccc(NC(=O)CCC(N)C(=O)O)cc2O1 (stereo not given) ?
false

Recorded test outcome, item COc1ccc2c(c1)CCN=C2c1ccccc1CCCCl
false

# outcome recorded in this test, key = COc1ccc2c(c1)c(=O)c1c(NCCN(C)C)ccc3c(=O)n(CCN(C)C)c(=O)n2c31
true

Entry N[C@H]1CCC[C@@H](O)C1O (stereo not given in full) : call = ?
false

Fill in: this test's call for CC(/C=N/N(C)C1=NCCCCN1)=N/N(C)C1=NCCCCN1 is ___
false

* * *

system: NCI/ADR-RES; assay: NCI tumour cell line growth inhibition, 48 h
The source made the active and inactive calls. Cut-off read from the data, not from the text of the source: active = GI50 up to about 1.1 µM and inactive = higher.
endpoint_name: GI50

Known results for molecules:
N/N=C(/CC(O)(C(F)(F)F)C(F)(F)F)c1ccccc1
> 10 µM (inactive)
C=C1C(=O)OC2CC3(CO3)C3C(O)C(O)CC3(C)CC12 (stereo not given)
38.8 µM (inactive)
Cc1ccc(S(=O)(=O)NC(=O)NCC(N)=O)cc1
> 100 µM (inactive)
O=C(Oc1cccc(Cl)c1)c1cc2cc(CCl)ccc2oc1=O
> 100 µM (inactive)
CC(C)(S)C(N)C(=O)O (stereo not drawn) [DL-PENICILLAMINE]
> 100 µM (inactive)
ClCCN1CCOC1=C1C=CC=C1
> 100 µM (inactive)
COc1ccccc1-c1cc(O)c2c(C)ccnc2n1
19.3 µM (inactive)
CN1CCc2cc(N)cc3c2C1Cc1ccc(O)c(O)c1-3 (stereo not given)
36.8 µM (inactive)
CN(CCCNC(=O)c1cn(C)c2c1ccc1ccccc12)CCCNC(=O)c1cn(C)c2c1ccc1ccccc12
1.77 µM (inactive)
COC(=O)C1CC23C=CCN4CC(C2C)C2(c5ccccc5NC12)C43 (stereo not given)
> 100 µM (inactive)

Recorded GI50 for COc1cc(S(=O)(=O)Nc2ccc(-c3csc(N4C(=O)C(C)SC4c4ccccc4)n3)cc2)ccc1Cl (stereo not given) , please?
> 100 µM (inactive)

Value lookup for GI50; key = C/C(=N\NC(=S)N1CCOCC1)c1nc2cccnc2[nH]1
80.5 µM (inactive)

Please report the recorded GI50 for CC(=O)c1[nH]c(NC(C)C)c(C(=S)Nc2ccccc2)c1N .
68.5 µM (inactive)

May I ask what GI50 has been recorded for COc1ccc(C2=NNC(=O)c3ccccc3N2c2nc(-c3cccs3)nc3cc(OC)c(OC)cc23)cc1 ?
5.55 µM (inactive)

Can you share its GI50? I mean this molecule: Clc1ccc(/C=N/c2ccc(Oc3ccc(Cl)cc3)c(Cl)c2)cc1
20.8 µM (inactive)

* * *

In this section, each of the compounds is paired with its reported GI50.
tested on: HCT-15
Answer format: numeric, µM implied, no suffix.

Solved entries (count: 3):
CCC/C(=N\NC(=S)N1CCN(c2ccccn2)CC1)c1ccccn1
0.00528
CC(=O)Oc1ccc2c(c1)CC[C@@H]1C2[C@@H](O[N+](=O)[O-])C[C@@]2(C)C1CC[C@@H]2O[N+](=O)[O-] (stereo partly drawn)
13.3
CN(C=O)/C=C/c1cc(O)ccc1O
36.6

Checklist item: GI50 tested on HCT-15, entry CC(=O)OCC1=C(C)C[C@H]([C@@H](COC(C)=O)C2CCC3C4C[C@H]5O[C@]56CC=CC(=O)[C@]6(C)C4CC[C@@]32C)OC1=O (stereo partly drawn) , value?
0.083

For HCT-15, provide GI50 of COc1ccc2c(c1)CCN=C2c1ccccc1CCCCl please.
23.6

What value of GI50 on HCT-15 does CN(C)CC/C(=N\Nc1ccc(Cl)cc1Cl)c1ccccc1 have?
12.4

Item: COc1cc(C=O)c(-c2cc3c(cc2C2(C)OCCS2)OCO3)c(OC)c1OC (stereo not drawn) Test system: HCT-15 Read-out: GI50 Value: ?
8.22

Form: Entry = CC(=O)O[C@H]1C(=O)[C@@]2(C)C(C(OC(=O)c3ccccc3)[C@]3(O)CC(OC(=O)[C@H](OC(=O)CCC(=O)O)C(NC(=O)c4ccccc4)c4ccccc4)C(C)=C1C3(C)C)C1(OC(C)=O)COC1C[C@@H]2O (stereo partly drawn) | System = HCT-15 | GI50 = ____
1.53

Recorded GI50 for COc1ccc(C2S/C(=C\c3ccc([N+](=O)[O-])cc3)C(=O)N2NC(=O)Cc2ccccc2)cc1 (stereo not drawn) with HCT-15, please?
79.8

Give GI50 (HCT-15) of the following compound: CC(=O)N(CCc1ccccc1)C(C#N)c1ccc(OCCCCCCCCCCOc2ccc(C(C#N)N(CCc3ccccc3)C(C)=O)cc2)cc1 (stereo not drawn)
99.1

State its GI50 on HCT-15: C#CN1C(=O)c2c(c(-c3ccccc3)c(-c3ccc(Oc4ccc(-c5c(-c6ccccc6)c6c(c(-c7ccccc7)c5-c5ccccc5)C(=O)N(C#C)C6=O)cc4)cc3)c(-c3ccccc3)c2-c2ccccc2)C1=O
30.8

* * *

test system: SF-268; assay: NCI tumour cell line growth inhibition, 48 h
The source made the active and inactive calls. Rule as the data show it: active = GI50 up to about 1.1 µM and inactive = higher.
Tick one outcome: active, inactive

Illustrative cases are given below, each with its answer.
CCC/C(=N\NC(=S)N1CCN(c2ccccn2)CC1)c1ccccn1
active
COc1ccc(/C=C\c2cc(OC)c(OC)c(OC)c2)cc1OC(=O)CCC(=O)O
active
CCN(CC)CCNc1ccc2nnn3c4ccc(OC)cc4c(=O)c1c23
inactive
O=C(Cc1ccccc1)NN1C(=O)C(Cl)C1c1cc(Br)cc(Br)c1O (stereo unspecified)
inactive
CCc1cccc(C)c1NC(=O)C(=O)Cc1nc2ccccc2o1
inactive

Now, please, on to the next compound.
Dear colleague, could you share the recorded outcome for CCOC(=O)c1cc(-c2ccc(OC)cc2)c([N+](=O)[O-])[nH]1 when you have a moment?
inactive

Data origin, for the record: ChEMBL document CHEMBL1201862
